target: human CYP11B2 (Homo sapiens, UniProt P19099); assay: G-402 cellular enzyme assay, human CYP11B2 (aldosterone release, HTRF); settings: G-402 cells expressing human CYP11B2; 1 μM Deoxycorticosterone
Sequence (P19099 25-503): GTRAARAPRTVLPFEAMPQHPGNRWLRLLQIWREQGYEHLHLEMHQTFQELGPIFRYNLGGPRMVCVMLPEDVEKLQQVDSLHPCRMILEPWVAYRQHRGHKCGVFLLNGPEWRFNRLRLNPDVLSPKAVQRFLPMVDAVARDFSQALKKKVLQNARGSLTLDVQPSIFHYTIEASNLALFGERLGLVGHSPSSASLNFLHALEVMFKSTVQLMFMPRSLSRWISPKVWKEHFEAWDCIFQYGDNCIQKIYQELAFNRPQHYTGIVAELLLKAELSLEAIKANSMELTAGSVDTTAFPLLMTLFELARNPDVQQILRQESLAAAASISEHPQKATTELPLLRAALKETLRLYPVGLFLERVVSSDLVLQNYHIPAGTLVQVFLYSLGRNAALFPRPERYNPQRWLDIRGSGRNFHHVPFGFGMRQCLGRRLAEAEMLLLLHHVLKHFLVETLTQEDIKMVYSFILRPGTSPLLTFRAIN
measured metric: EC50 (nM)
Write it as a number; the unit nM goes unstated.

Request: Answer briefly: EC50 recorded on human CYP11B2 (Homo sapiens, UniProt P19099) for CN1C(=O)CCc2cc(-c3cncc(Cn4c(Cl)cccc4=O)c3)c(F)cc21 [Example 22]
Result: 0.2

Request: Answer briefly: EC50 recorded on human CYP11B2 (Homo sapiens, UniProt P19099) for Cc1c(Cn2c(F)cccc2=O)cncc1-c1cc2c(cc1F)N(C)C(=O)CC2 [Example 27]
Result: 1

Request: Answer briefly: EC50 recorded on human CYP11B2 (Homo sapiens, UniProt P19099) for CN1C(=O)CCc2cc(-c3cncc(Cn4cccc(Cl)c4=O)c3)ccc21 [Example 4]
Result: 29.3

Request: Answer briefly: EC50 recorded on human CYP11B2 (Homo sapiens, UniProt P19099) for CN1C(=O)CCc2cc(-c3cncc(Cn4c(Cl)cccc4=O)c3)ccc21 [Example 17]
Result: 2.2

Request: Answer briefly: EC50 recorded on human CYP11B2 (Homo sapiens, UniProt P19099) for CN1C(=O)CCc2cc(-c3cncc(Cn4cccc(F)c4=O)c3)c(F)cc21 [Example 19]
Result: 0.5

Request: Answer briefly: EC50 recorded on human CYP11B2 (Homo sapiens, UniProt P19099) for CN1C(=O)CCc2cc(-c3cncc(Cn4ccc(C#N)cc4=O)c3)ccc21 [Example 14]
Result: 8.8

Request: Answer briefly: EC50 recorded on human CYP11B2 (Homo sapiens, UniProt P19099) for CN1C(=O)CCc2cc(-c3cncc(Cn4cc(Cl)ccc4=O)c3)ccc21 [Example 9]
Result: 10.5

Request: Answer briefly: EC50 recorded on human CYP11B2 (Homo sapiens, UniProt P19099) for Cc1c(Cn2c(C)cccc2=O)cncc1-c1cc2c(cc1F)N(C)C(=O)CC2 [Example 24]
Result: 16.5

Request: Answer briefly: EC50 recorded on human CYP11B2 (Homo sapiens, UniProt P19099) for CN1C(=O)CCc2cc(-c3cncc(Cn4c(=O)sc5ccccc54)c3)ccc21 [Example 1]
Result: 1.4

Request: Answer briefly: EC50 recorded on human CYP11B2 (Homo sapiens, UniProt P19099) for CN1C(=O)CCc2cc(-c3cncc(Cn4cc(F)ccc4=O)c3)ccc21 [Example 2]
Result: 18.5

Request: Answer briefly: EC50 recorded on human CYP11B2 (Homo sapiens, UniProt P19099) for CN1C(=O)CCc2cc(-c3cncc(Cn4cccc(F)c4=O)c3)ccc21 [Example 6]
Result: 32.7

Request: Answer briefly: EC50 recorded on human CYP11B2 (Homo sapiens, UniProt P19099) for Cc1ccn(Cc2cncc(-c3ccc4c(c3)CCC(=O)N4C)c2)c(=O)c1 [Example 8]
Result: 27

Request: Answer briefly: EC50 recorded on human CYP11B2 (Homo sapiens, UniProt P19099) for CN1C(=O)CCc2cc(-c3cncc(Cn4cc(Cl)ccc4=O)c3)c(F)cc21 [Example 21]
Result: 15.1

Request: Answer briefly: EC50 recorded on human CYP11B2 (Homo sapiens, UniProt P19099) for CN1C(=O)CCc2cc(-c3cncc(Cn4ccccc4=O)c3)ccc21 [Example 10]
Result: 29

Request: Answer briefly: EC50 recorded on human CYP11B2 (Homo sapiens, UniProt P19099) for Cc1cccc(=O)n1Cc1cncc(-c2ccc3c(c2)CCC(=O)N3C)c1 [Example 7]
Result: 8.8

Request: Answer briefly: EC50 recorded on human CYP11B2 (Homo sapiens, UniProt P19099) for CN1C(=O)CCc2cc(-c3cncc(Cn4cc(C(F)(F)F)cc(F)c4=O)c3)ccc21 [Example 5]
Result: 13.2

Request: Answer briefly: EC50 recorded on human CYP11B2 (Homo sapiens, UniProt P19099) for CN1C(=O)CCc2cc(-c3cncc(Cn4cccnc4=O)c3)ccc21 [Example 13]
Result: 89.2

Request: Answer briefly: EC50 recorded on human CYP11B2 (Homo sapiens, UniProt P19099) for Cc1nccc(=O)n1Cc1cncc(-c2ccc3c(c2)CCC(=O)N3C)c1 [Example 12]
Result: 7.4
